Reference for the values: PubChem BioAssay AID2537

Target: Polyunsaturated fatty acid lipoxygenase ALOX15B (Homo sapiens)
Assay: Confirmation qHTS Assay for Inhibitors of 15-hLO-2 (15-human lipoxygenase 2)
Conditions: purified 15hLO-2, xylenol orange hydroperoxide absorbance; series mostly up to 57.1 µM
Inconclusive results are not listed. The source made the active and inactive calls. Calls come from the whole dose curve; as a rule, active = well fitted inhibition curve with a large enough effect; inconclusive = small, poorly fitted or top-dose-only effect; inactive = no such curve, though single readings can be large or run the other way.
Thanks in advance; please answer with one of these: true (active), false (inactive)

COc1cccc(-c2nc(NC3CCNCC3)c3ccccc3n2)c1 = false
COc1cccc(-c2nccc(NCc3ccccc3OC)n2)c1 = false
CC(=O)[C@@H]1[C@@H]2C(=O)N(Cc3ccccc3)C(=O)[C@@H]2C2c3ccccc3C=CN21 (stereo not given in full) = false
Cc1cc(/C=N/NC(=O)Cn2c3ccccc3c(=O)c3ccccc32)c(C)n1-c1ccccc1 = true

Turning to the following compound.
Please share the test call associated with O=C1C2C3CCCC3=C3CCCC3C2C(=O)N1c1cccc(Cl)c1 (stereo not given) .
false
